biological target: hFc-hROR2-T245 (recombinant human ROR2 extracellular domain fused to human Fc) (human) (UniProt Q01974); assay: SPR (Biacore X100), hFc-hROR2 captured by anti-human Fc on CM5, Fab as analyte, 1:1 Langmuir model
Sequence (Q01974 55-394 limits assumed, form in doubt): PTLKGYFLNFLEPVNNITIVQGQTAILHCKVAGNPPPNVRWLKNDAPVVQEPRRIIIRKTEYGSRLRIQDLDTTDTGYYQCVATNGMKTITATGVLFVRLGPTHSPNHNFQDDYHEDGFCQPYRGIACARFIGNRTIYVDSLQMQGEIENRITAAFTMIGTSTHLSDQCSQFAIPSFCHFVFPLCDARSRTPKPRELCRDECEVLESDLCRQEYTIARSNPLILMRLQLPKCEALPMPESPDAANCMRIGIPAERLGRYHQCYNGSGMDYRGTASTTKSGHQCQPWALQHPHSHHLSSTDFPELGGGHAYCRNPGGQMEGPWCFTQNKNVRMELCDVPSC
measure.name: Kd

Problem: What value of Kd has been reported for the following binder? chimeric rabbit/human Fab ERR2-TOP35 (Fab, V domains shown) VH: QSVKESEGGLFKPMDTLTLTCTVSGFSLNTYGVSWVRQAPGNGLEWIGAVGSSGATNYASWAKSRSTITRNTNENTVTLKMTSLTAADTATYFCARDGYYSSGWGPYFSIWGPGTLVTVSS VL: SFVLTQPASVQVNLGQTVSLTCTAETLRSSYASWYQQKPGQAPVLLIYRDTSRPSGVPDRFSGSSSGNTATLTISGAQAGDEADYYCATSDGSGSRYYVFGGGTQLTVTG
Result: 43.3 nM
